Just for reference, patent US6339042B1 is where these values come from.

tested on: Setaria viridis; test: Post-emergence herbicidal evaluation, SETVI; conditions: 0.200 kg/ha, three weeks after treatment
Below, each entry is listed with its recorded phytotoxicity rating SETVI.

Solved entries (count: 5):
Which phytotoxicity rating SETVI reading was recorded for the compound CC1=CC(N(C)C(=O)COc2nnc(C(F)(F)C(F)(F)F)s2)=CC(C)(C)C1 ?
0 (0 - No effect)

Which phytotoxicity rating SETVI reading was recorded for the compound CC1=CC(N(C(=O)COc2nc3ccccc3o2)C(C)C)=CC(C)(C)C1 ?
6 (6 - Herbicidal effect)

Which phytotoxicity rating SETVI reading was recorded for the compound CC1=CC(N(C)C(=O)COc2nnc(C(F)(F)F)s2)=CC(C)(C)C1 ?
0 (0 - No effect)

Which phytotoxicity rating SETVI reading was recorded for the compound CCc1nnc(OCC(=O)N(CC)C2=CC(C)(C)CC(C)=C2)s1 ?
0 (0 - No effect)

Which phytotoxicity rating SETVI reading was recorded for the compound CC1=CC(N(C(=O)COc2nnc(C(F)(F)F)s2)C(C)C)=CC(C)(C)C1 ?
5 (5 - Definite injury)

Others:
Which phytotoxicity rating SETVI reading was recorded for the compound CC1=CC(N(C)C(=O)COc2nc3ccccc3o2)=CC(C)(C)C1 ?
0 (0 - No effect)

Which phytotoxicity rating SETVI reading was recorded for the compound CCN(C(=O)COc1nc2ccccc2o1)C1=CC(C)(C)CC(C)=C1 ?
2 (2 - Slight effect)

Which phytotoxicity rating SETVI reading was recorded for the compound CCN(C(=O)COc1nnc(C(F)(F)F)s1)C1=CC(C)(C)CC(C)=C1 ?
2 (2 - Slight effect)

Which phytotoxicity rating SETVI reading was recorded for the compound CCN(C(=O)COc1nnc(C(F)(F)C(F)(F)F)s1)C1=CC(C)(C)CC(C)=C1 ?
0 (0 - No effect)

Which phytotoxicity rating SETVI reading was recorded for the compound CCc1nnc(OCC(=O)N(C)C2=CC(C)(C)CC(C)=C2)s1 ?
0 (0 - No effect)

Which phytotoxicity rating SETVI reading was recorded for the compound CCc1nnc(OCC(=O)N(C2=CC(C)(C)CC(C)=C2)C(C)C)s1 ?
0 (0 - No effect)

----------
Below, each entry is listed with its recorded phytotoxicity rating ALOMY.
test system: Alopecurus myosuroides; experiment: Post-emergence herbicidal evaluation, ALOMY; details: 0.400 kg/ha, three weeks after treatment

Solved entries (count: 2):
Which phytotoxicity rating ALOMY reading was recorded for the compound CCN(C(=O)COc1nc2ccccc2o1)C1=CC(C)(C)CC(C)=C1 [Example 2] ?
7 (7 - Good herbicidal effect)

Which phytotoxicity rating ALOMY reading was recorded for the compound CC1=CC(N(C(=O)COc2nc3ccccc3o2)C(C)C)=CC(C)(C)C1 [Example 17] ?
8 (8 - Approaching complete kill)

We next turn to a different compound, shown below.
Which phytotoxicity rating ALOMY reading was recorded for the compound CCN(C(=O)COc1nnc(C(F)(F)C(F)(F)F)s1)C1=CC(C)(C)CC(C)=C1 [Example 8] ?
4 (4 - Injury)

----------
Below, each entry is listed with its recorded phytotoxicity rating APESV.
tested on: Apera spica venti; assay: Post-emergence herbicidal evaluation, APESV; details: 0.400 kg/ha, three weeks after treatment

Which phytotoxicity rating APESV reading was recorded for the molecule CC1=CC(N(C)C(=O)COc2nnc(C(F)(F)F)s2)=CC(C)(C)C1 ?
3 (3 - Moderate effect)

Which phytotoxicity rating APESV reading was recorded for the molecule CCN(C(=O)COc1nc2ccccc2o1)C1=CC(C)(C)CC(C)=C1 ?
7 (7 - Good herbicidal effect)

Which phytotoxicity rating APESV reading was recorded for the molecule CC1=CC(N(C(=O)COc2nc3ccccc3o2)C(C)C)=CC(C)(C)C1 ?
8 (8 - Approaching complete kill)

We next turn to a different molecule, shown below.
Which phytotoxicity rating APESV reading was recorded for the molecule CCc1nnc(OCC(=O)N(C)C2=CC(C)(C)CC(C)=C2)s1 ?
1 (1 - Trace effect)
